# test_system: Aldo-keto reductase family 1 member B1 (Homo sapiens)
# method_notes: In vitro inhibitroy concentration against Aldose reductase incubated at 24 degree C for 15 minutes in pH 7.0
pIC50: −log10 of the molar value.
Where pIC50 equals or exceeds 7, the correct label is Criterion met; where it does not, the label is Criterion not met.

>>> print(df.to_string())
                                 chem_smiles         class_name
 0   O=c1ccc(S(=O)(=O)Cc2cccc(Cl)c2Cl)n[nH]1      Criterion met
 1  Cc1c(S(=O)(=O)c2ccc(O)nn2)oc2cc(Cl)ccc12  Criterion not met
 2    O=c1ccc(S(=O)(=O)Cc2ccc(Br)cc2F)n[nH]1  Criterion not met
 3  O=c1ccc(S(=O)(=O)c2oc3ccccc3c2-c2ccccc2)n[nH]1      Criterion met
 4  O=c1ccc(S(=O)(=O)c2cc3ccccc3[nH]2)n[nH]1  Criterion not met
 5    O=c1ccc(S(=O)(=O)Cc2c(F)cccc2Cl)n[nH]1      Criterion met
 6      O=c1ccc(S(=O)(=O)c2ccc(Cl)cc2)n[nH]1  Criterion not met
 7  O=c1ccc(S(=O)(=O)c2cc3ccc(F)cc3[nH]2)n[nH]1  Criterion not met
 8  O=c1ccc(S(=O)(=O)c2cc3cc4c(cc3[nH]2)OCO4)n[nH]1  Criterion not met
 9  O=S(=O)(c1ccc(O)nn1)c1oc2ccccc2c1-c1ccc(F)cc1      Criterion met
10  O=c1ccc(S(=O)(=O)c2cc3cc(Cl)ccc3[nH]2)n[nH]1  Criterion not met
11  Cc1c(S(=O)(=O)c2ccc(O)nn2)sc2ccc(Cl)cc12      Criterion met
12      O=c1ccc(S(=O)(=O)c2ccc(F)cc2F)n[nH]1  Criterion not met
13            O=S(=O)(Cc1ccccc1F)c1ccc(O)nn1  Criterion not met
14     O=S(=O)(Cc1ccccc1C(F)(F)F)c1ccc(O)nn1  Criterion not met
15  Cc1c(S(=O)(=O)c2ccc(=O)[nH]n2)oc2ccc(Cl)cc12      Criterion met

====

# System: Rattus norvegicus
# method_notes: Inhibition of fructose accumulation in diabetic rat after oral gavage administration, pH 4.5 by chronic test dosed at 20 mg/kg
# Type: functional
Attribute: inhibition in vivo at 20 mg/kg
endpoint: inhibition in vivo at 20 mg/kg (%)

                                chem_smiles                        endpoint  result_units  reported_value
0   O=S(=O)(Cc1cccc(C(F)(F)F)c1)c1ccc(O)nn1  inhibition in vivo at 20 mg/kg             %              42
1  O=c1ccc(S(=O)(=O)c2cc3ccccc3[nH]2)n[nH]1  inhibition in vivo at 20 mg/kg             %              50
2      O=S(=O)(c1cc(Cl)cc(Cl)c1)c1ccc(O)nn1  inhibition in vivo at 20 mg/kg             %              38
3    O=c1ccc(S(=O)(=O)c2cccc3ccccc23)n[nH]1  inhibition in vivo at 20 mg/kg             %              43

====

Attribute: inhibition in vivo at 20 mg/kg
# Test system: Rattus norvegicus
# method_notes: Inhibition of sorbitol accumulation in diabetic rat by acute test dosed at 20 mg/kg
# Type: functional
endpoint: inhibition in vivo at 20 mg/kg (%)

In [3]: df
Out[3]:
                                chem_smiles                        endpoint  reported_value
0    O=c1ccc(S(=O)(=O)c2cccc(Cl)c2Cl)n[nH]1  inhibition in vivo at 20 mg/kg              98
1     O=c1ccc(S(=O)(=O)c2cc3ccccc3s2)n[nH]1  inhibition in vivo at 20 mg/kg              46
2         O=S(=O)(Cc1cccc(F)c1F)c1ccc(O)nn1  inhibition in vivo at 20 mg/kg              82
3  O=c1ccc(S(=O)(=O)c2cc3cccc(Cl)c3[nH]2)n[nH]1  inhibition in vivo at 20 mg/kg              40
4        O=S(=O)(Cc1cccc(Cl)c1F)c1ccc(O)nn1  inhibition in vivo at 20 mg/kg              74
5   O=c1ccc(S(=O)(=O)Cc2cccc(Cl)c2Cl)n[nH]1  inhibition in vivo at 20 mg/kg              65
6    O=c1ccc(S(=O)(=O)c2cccc3ccccc23)n[nH]1  inhibition in vivo at 20 mg/kg              95
7  O=c1ccc(S(=O)(=O)c2cc3ccccc3[nH]2)n[nH]1  inhibition in vivo at 20 mg/kg             100
